Consider the following compounds; for each one, report its inhibition.
SUBJECT_OF_TEST: Prostaglandin G/H synthase 2 (Rattus norvegicus) (UniProt P35355)
Sequence (P35355 whole entry): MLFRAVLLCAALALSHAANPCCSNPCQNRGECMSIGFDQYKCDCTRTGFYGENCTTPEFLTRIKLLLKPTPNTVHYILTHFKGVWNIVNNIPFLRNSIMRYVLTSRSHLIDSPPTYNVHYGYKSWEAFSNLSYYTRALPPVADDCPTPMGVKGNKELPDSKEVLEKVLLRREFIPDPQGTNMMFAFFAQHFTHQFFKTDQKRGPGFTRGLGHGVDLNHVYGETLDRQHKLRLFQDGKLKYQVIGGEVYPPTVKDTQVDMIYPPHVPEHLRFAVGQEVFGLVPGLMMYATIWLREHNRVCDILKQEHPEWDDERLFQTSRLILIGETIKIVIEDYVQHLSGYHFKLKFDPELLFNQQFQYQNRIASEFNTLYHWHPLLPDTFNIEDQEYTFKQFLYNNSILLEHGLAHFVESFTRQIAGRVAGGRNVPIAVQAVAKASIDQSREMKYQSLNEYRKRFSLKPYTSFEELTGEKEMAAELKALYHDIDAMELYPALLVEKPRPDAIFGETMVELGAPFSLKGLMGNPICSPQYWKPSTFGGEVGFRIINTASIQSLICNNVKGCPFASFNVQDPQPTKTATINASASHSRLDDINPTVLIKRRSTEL
PROTOCOL_SUMMARY: Compound was evaluated for in vivo antiinflammatory activity with prostaglandin G/H synthase 2 inhibition of PGE2 formation at an oral dose of 45 umol/kg
Format: functional, organism-based
TEST_SETTINGS: at 45 µmol/kg
One number for each entry, in %.

Would you please look over these solved cases?
Quick note, inhibition for `CS(=O)(=O)c1ccc(-c2cc(/C=C\CCO[N+](=O)[O-])nn2C2CCCCC2)cc1` landed at 97

Quick note, inhibition for `CS(=O)(=O)c1ccc(-c2cc(/C(CCCO[N+](=O)[O-])=N\O)nn2C2CCCCC2)cc1` landed at 65

Quick note, inhibition for `CS(=O)(=O)c1ccc(-c2cc(C(=O)CCCO[N+](=O)[O-])nn2-c2ccc(F)cc2)cc1` landed at 45

Quick note, inhibition for `CS(=O)(=O)c1ccc(-c2cc(C(=O)CCCO[N+](=O)[O-])nn2C2CCCCC2)cc1` landed at 45

Quick note, inhibition for `COc1ccc(-n2nc(C(=O)CCCO[N+](=O)[O-])cc2-c2ccc(S(C)(=O)=O)cc2)cc1` landed at 78

In the following, a different compound is considered.
Quick note, inhibition for `Cc1ccc(-n2nc(C(=O)CCCO[N+](=O)[O-])cc2-c2ccc(S(C)(=O)=O)cc2)cc1` landed at 20

* * *

SUBJECT_OF_TEST: Prostaglandin G/H synthase 2 (Rattus norvegicus) (UniProt P35355)
PROTOCOL_SUMMARY: Compound was evaluated for in vivo antiinflammatory activity with prostaglandin G/H synthase 2 inhibition of white-cell infiltration at an oral dose of 45 umol/kg
Format: functional, organism-based
TEST_SETTINGS: at 45 µmol/kg
Consider the following compounds; for each one, report its inhibition.
One number for each entry, in %.

Would you please look over these solved cases?
Quick note, inhibition for `CS(=O)(=O)c1ccc(-c2cc(/C=C\CCO[N+](=O)[O-])nn2C2CCCCC2)cc1` landed at 60

Quick note, inhibition for `CS(=O)(=O)c1ccc(-c2cc(C(=O)CCCO[N+](=O)[O-])nn2C2CCCCC2)cc1` landed at 42

Quick note, inhibition for `COc1ccc(-n2nc(C(=O)CCCO[N+](=O)[O-])cc2-c2ccc(S(C)(=O)=O)cc2)cc1` landed at 43

In the following, a different compound is considered.
Quick note, inhibition for `CS(=O)(=O)c1ccc(-c2cc(C(=O)CCCO[N+](=O)[O-])nn2-c2ccc(F)cc2)cc1` landed at 23

* * *

SUBJECT_OF_TEST: Prostaglandin G/H synthase 2 (Homo sapiens) (UniProt P35354)
Sequence (P35354 whole entry): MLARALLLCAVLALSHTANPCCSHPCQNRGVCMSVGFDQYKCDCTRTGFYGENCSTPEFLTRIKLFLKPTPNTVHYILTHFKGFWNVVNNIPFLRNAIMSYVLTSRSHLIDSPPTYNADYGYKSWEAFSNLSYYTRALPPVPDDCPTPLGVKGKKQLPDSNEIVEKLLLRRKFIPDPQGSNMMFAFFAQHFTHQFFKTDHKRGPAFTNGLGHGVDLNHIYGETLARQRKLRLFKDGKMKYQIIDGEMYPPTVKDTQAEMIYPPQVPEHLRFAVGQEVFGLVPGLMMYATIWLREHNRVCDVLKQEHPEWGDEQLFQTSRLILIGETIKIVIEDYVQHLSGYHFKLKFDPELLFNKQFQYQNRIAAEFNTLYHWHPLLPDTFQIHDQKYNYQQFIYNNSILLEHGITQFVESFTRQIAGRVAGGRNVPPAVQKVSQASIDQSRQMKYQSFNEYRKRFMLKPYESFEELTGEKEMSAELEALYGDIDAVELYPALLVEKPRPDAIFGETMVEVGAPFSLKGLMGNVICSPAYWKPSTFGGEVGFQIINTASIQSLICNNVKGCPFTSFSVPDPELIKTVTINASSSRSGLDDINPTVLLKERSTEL
TEST_SETTINGS: recombinant enzyme; at 10 µM
Description: Evaluation for percent inhibition of recombinant prostaglandin G/H synthase 2 in human whole blood (HWB) at a concentration of 10 um
OUTCOME_MEASURE: inhibition (%)
Answers are plain numbers, in %.

Would you please look over these solved cases?
Hey, Prostaglandin G/H synthase 2 (Homo sapiens) (UniProt P35354) data for `CS(=O)(=O)c1ccc(-c2cc(CO)nn2C2CCCCC2)cc1` : inhibition came out at 35

Hey, Prostaglandin G/H synthase 2 (Homo sapiens) (UniProt P35354) data for `CS(=O)(=O)c1ccc(-c2cc(CCO[N+](=O)[O-])nn2C2CCCCC2)cc1` : inhibition came out at 95

Hey, Prostaglandin G/H synthase 2 (Homo sapiens) (UniProt P35354) data for `CS(=O)(=O)c1ccc(-c2cc(CO)nn2CC2CCCCC2)cc1` : inhibition came out at 40

Count: 5. Required value per item: inhibition.
1. CS(=O)(=O)c1ccc(-c2cc(CCO)nn2C2CCCCC2)cc1
2. CS(=O)(=O)c1ccc(-c2cc(CO[N+](=O)[O-])nn2C2CCS(=O)(=O)CC2)cc1
3. CS(=O)(=O)c1ccc(-c2cc(CO[N+](=O)[O-])nn2C2CCCCC2)cc1
4. CS(=O)(=O)c1ccc(-c2cc(CO[N+](=O)[O-])nn2CC2CCCCC2)cc1
5. CS(=O)(=O)c1ccc(-c2cc(CO)nn2C2CCS(=O)(=O)CC2)cc1

1. 35
2. 0
3. 100
4. 65
5. 10

Values compiled from ChEMBL document CHEMBL1149153.
